target-entity: NahK_ATCC55813 (Bifidobacterium longum subsp. longum, UniProt E8MF12, D7V/R348H)
Assay type: biochemical
Set-up: made in house; host or cells: E. coli BL21(DE3)
run-parameters: 15 μM enzyme, 30 min at 37° C.; substrate 1 mM, ATP 1 mM (Table 2)
Field: Percentage Conversion. Provide a value for each of the compounds that follow.
Kindly answer with a numeric value in %, unit omitted.

*Q* Provide Percentage Conversion, system NahK_ATCC55813 (Bifidobacterium longum subsp. longum, UniProt E8MF12, D7V/R348H), entry [N-]=[N+]=NC1C(O)OC(COS(=O)(=O)O)[C@@H](O)[C@@H]1O (stereo partly shown)
*A* 4.4

*Q* Please report Percentage Conversion with NahK_ATCC55813 (Bifidobacterium longum subsp. longum, UniProt E8MF12, D7V/R348H) for item O=S(=O)(O)NC1C(O)OC(CO)[C@@H](O)C1O (stereo partly shown) .
*A* 4.0

*Q* Fetch value of Percentage Conversion on NahK_ATCC55813 (Bifidobacterium longum subsp. longum, UniProt E8MF12, D7V/R348H) for NC1C(O)OC(CO)[C@@H](O)[C@@H]1O (stereo partly shown) .
*A* 8.4

*Q* // fetch Percentage Conversion for [N-]=[N+]=N[C@@H](C=O)[C@@H](OS(=O)(=O)O)[C@H](O)[C@H](O)CO ; system: NahK_ATCC55813 (Bifidobacterium longum subsp. longum, UniProt E8MF12, D7V/R348H)
*A* 3.9

*Q* Provide measured Percentage Conversion on NahK_ATCC55813 (Bifidobacterium longum subsp. longum, UniProt E8MF12, D7V/R348H) for CC(=O)NC1C(O)OC(COS(=O)(=O)O)[C@@H](O)C1O (stereo partly shown) please.
*A* 6.6

*Q* Under NahK_ATCC55813 (Bifidobacterium longum subsp. longum, UniProt E8MF12, D7V/R348H): report Percentage Conversion of [N-]=[N+]=NC1C(O)OC(CO)[C@H](O)C1O (stereo partly shown) .
*A* 4.3

*Q* # return Percentage Conversion of CC(=O)NC1C(O)OC(CN=[N+]=[N-])[C@@H](O)C1O (stereo partly shown) (system: NahK_ATCC55813 (Bifidobacterium longum subsp. longum, UniProt E8MF12, D7V/R348H))
*A* 23.4

*Q* Enter recorded Percentage Conversion with NahK_ATCC55813 (Bifidobacterium longum subsp. longum, UniProt E8MF12, D7V/R348H) for CC(=O)NC1C(O)OC(C)[C@@H](O)C1O (stereo partly shown) here.
*A* 36.3

*Q* Retrieve Percentage Conversion on NahK_ATCC55813 (Bifidobacterium longum subsp. longum, UniProt E8MF12, D7V/R348H); query O=C(NC1C(O)OC(CO)[C@H](O)C1O)c1ccccc1 (stereo partly shown)
*A* 51.9

*Q* # return Percentage Conversion of O=C(NC1C(O)OC(COS(=O)(=O)O)[C@@H](O)C1O)C(F)(F)F (stereo partly shown) (system: NahK_ATCC55813 (Bifidobacterium longum subsp. longum, UniProt E8MF12, D7V/R348H))
*A* 3.3

###

target-entity: NahK_ATCC15697 (Bifidobacterium longum, UniProt B7GN78)
measurement-protocol: Substrate specificity CE assay, NahK_ATCC15697
Type: biochemical, Bifidobacterium infantis
run-parameters: 15 μM enzyme, 30 min at 37° C.; substrate 1 mM, ATP 1 mM (Table 2)
readout-name: Percentage Conversion (%)
Respond numerically; units are % and should not be typed.

*Q* Give the reported value of Percentage Conversion for this record: O=S(=O)(O)NC1C(O)OC(CO)[C@@H](O)C1O (some centres unmarked)
*A* 6.4

*Q* State its Percentage Conversion: O=C(NC1C(O)OC(COS(=O)(=O)O)[C@@H](O)C1O)C(F)(F)F (some centres unmarked)
*A* 7.2

*Q* Provide measured Percentage Conversion value, entry: [N-]=[N+]=N[C@@H](C=O)[C@@H](OS(=O)(=O)O)[C@H](O)[C@H](O)CO
*A* 4.9

*Q* Answer with reported Percentage Conversion of CC(=O)NC1C(O)OC(CN=[N+]=[N-])[C@@H](O)C1O (some centres unmarked)
*A* 37.2

*Q* For [N-]=[N+]=NC1C(O)OC(COS(=O)(=O)O)[C@@H](O)[C@@H]1O (some centres unmarked) , write its Percentage Conversion.
*A* 6.9
